measurement description: Ratio of drug level in brain to plasma in mouse at 10 mg/kg, ip after 30 mins
Format: ADME, organism-based
Parameters: dose 10 mg/kg, route intraperitoneal
measurement context: read-out: BPR
measurement name: Kp at 0.5 h

# given smiles, measurement name, experimental value
records = [
    ("COc1cc(F)ccc1-c1cncc(CNC2CCCC2)c1", "Kp at 0.5 h", 10.9),
]

###

measurement description: Equilibrium solubility of the compound at pH 7.4
Type: physicochemical
measurement context: buffer
measurement name: solubility thermodynamic (µM)

# given smiles, measurement name, modifier, experimental value
data = [
    ("COc1cc(F)ccc1-c1cncc(CNCC2CC2)n1", "solubility thermodynamic", "=", 340),
    ("C[C@@H]([C@@H](O)c1ccc(O)cc1)N1CCC(O)(c2ccccc2)CC1", "solubility thermodynamic", ">", 470),
    ("COc1cc(F)ccc1-c1cncc(CNC(=O)c2cnccn2)c1", "solubility thermodynamic", "=", 63),
    ("COc1cc(F)ccc1-c1cncc(CNC2CCCC2)c1", "solubility thermodynamic", ">", 450),
]

###

measurement description: Ratio of drug level in brain to plasma in mouse at 30 mg/kg, ip after 30 mins
Format: ADME, organism-based
Design: dose 30 mg/kg, route intraperitoneal
measurement context: read-out: BPR

# given smiles, Kp at 0.5 h
rows = [
    ("COc1cc(F)ccc1-c1cncc(CNC2CCCC2)c1", 13.6),
]

###

measurement description: Intrinsic clearance in human liver microsomes
Type: ADME, Microsome
Each record here notes measured microsomal CLint.

# given smiles, microsomal CLint [µL/min/mg]
records = [
    ("COc1cc(F)ccc1-c1cncc(CNC(=O)c2ccccn2)c1", 45),
    ("COc1cc(F)ccc1-c1cncc(CNC(=O)c2cnccn2)c1", 64),
    ("C[C@@H]([C@@H](O)c1ccc(O)cc1)N1CCC(O)(c2ccccc2)CC1", 37),
    ("COc1cc(F)ccc1-c1cncc(CNC2CCCC2)c1", 74),
    ("COc1cc(F)ccc1-c1cncc(CNCC2CC2)n1", 108),
]

###

measurement description: Ratio of drug level in brain to plasma in mouse at 60 mg/kg, ip after 30 mins
Type: ADME, organism-based
Set-up: dose 60 mg/kg, route intraperitoneal
measurement context: read-out: BPR

# given smiles, Kp at 0.5 h
records = [
    ("COc1cc(F)ccc1-c1cncc(CNC2CCCC2)c1", 12.6),
]
